Parameter: IC50. Scope: all listed entries.
Experimental System: α4β1 integrin (Homo sapiens (Human), UniProt P05556+P13612)
Sequence (P13612 34-1032): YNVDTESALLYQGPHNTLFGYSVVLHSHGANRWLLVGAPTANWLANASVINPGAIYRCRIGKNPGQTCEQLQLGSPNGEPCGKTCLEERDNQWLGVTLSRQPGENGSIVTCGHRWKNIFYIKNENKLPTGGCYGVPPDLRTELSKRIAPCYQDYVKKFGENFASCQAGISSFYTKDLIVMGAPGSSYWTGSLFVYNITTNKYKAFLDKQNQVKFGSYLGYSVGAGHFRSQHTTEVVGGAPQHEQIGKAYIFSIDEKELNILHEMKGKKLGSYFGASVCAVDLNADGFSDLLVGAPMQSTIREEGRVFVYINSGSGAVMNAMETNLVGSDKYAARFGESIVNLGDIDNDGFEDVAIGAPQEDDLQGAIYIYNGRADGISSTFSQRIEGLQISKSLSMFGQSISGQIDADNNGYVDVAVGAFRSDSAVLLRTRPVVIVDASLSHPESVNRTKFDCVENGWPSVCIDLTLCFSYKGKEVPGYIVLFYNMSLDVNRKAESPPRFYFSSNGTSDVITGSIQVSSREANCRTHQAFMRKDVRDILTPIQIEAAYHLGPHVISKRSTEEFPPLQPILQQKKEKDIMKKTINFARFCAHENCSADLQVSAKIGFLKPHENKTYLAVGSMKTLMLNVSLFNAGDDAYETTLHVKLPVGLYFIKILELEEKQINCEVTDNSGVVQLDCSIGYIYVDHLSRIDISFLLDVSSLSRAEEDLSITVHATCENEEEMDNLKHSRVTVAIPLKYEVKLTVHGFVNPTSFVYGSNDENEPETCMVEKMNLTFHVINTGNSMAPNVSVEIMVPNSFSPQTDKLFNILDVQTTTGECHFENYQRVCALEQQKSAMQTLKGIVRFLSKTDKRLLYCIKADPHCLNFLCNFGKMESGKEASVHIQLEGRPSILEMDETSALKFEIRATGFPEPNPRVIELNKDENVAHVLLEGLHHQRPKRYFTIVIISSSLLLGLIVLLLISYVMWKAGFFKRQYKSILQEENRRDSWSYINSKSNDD
Sequence (P05556 21-798): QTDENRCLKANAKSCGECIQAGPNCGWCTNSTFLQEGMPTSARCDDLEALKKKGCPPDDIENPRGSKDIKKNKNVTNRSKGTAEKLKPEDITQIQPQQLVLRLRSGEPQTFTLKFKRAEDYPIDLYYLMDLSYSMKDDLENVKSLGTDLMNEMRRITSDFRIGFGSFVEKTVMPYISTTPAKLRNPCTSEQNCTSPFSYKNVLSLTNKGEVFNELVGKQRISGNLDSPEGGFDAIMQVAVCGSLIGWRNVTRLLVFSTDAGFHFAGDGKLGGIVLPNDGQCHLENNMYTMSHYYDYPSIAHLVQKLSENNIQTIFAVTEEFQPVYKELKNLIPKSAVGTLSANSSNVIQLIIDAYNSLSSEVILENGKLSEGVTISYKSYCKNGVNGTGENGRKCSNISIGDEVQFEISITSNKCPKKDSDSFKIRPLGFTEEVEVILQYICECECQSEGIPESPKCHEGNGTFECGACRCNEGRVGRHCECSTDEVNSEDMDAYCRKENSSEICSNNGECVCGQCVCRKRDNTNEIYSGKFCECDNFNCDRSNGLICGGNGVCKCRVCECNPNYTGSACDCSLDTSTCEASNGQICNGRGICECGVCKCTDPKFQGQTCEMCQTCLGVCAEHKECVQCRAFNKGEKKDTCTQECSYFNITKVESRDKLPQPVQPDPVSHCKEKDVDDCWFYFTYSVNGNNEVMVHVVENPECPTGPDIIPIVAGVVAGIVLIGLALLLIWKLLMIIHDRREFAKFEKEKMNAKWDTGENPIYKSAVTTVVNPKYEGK
Test Name: Integrin Adhesion Assay: Protocol 5 (VCAM-coated plate, RPMI-8866 cells with stable LOF mutation of the ITGB7 gene)
Assay type: cell-based
Condition Set: RPMI-8866 cells with stable LOF mutation of the ITGB7 gene; read-out: Mean IC50 α4β1 KO^b
Measured Quantity: IC50

INSERT INTO measurements (sample_smiles, measured_quantity, recorded_measurement) VALUES
  ('COc1ccc(CN2CCOCC2)c(OC)c1-c1cccc2c(C[C@H](NC(=O)c3c(C)cccc3F)C(=O)O)cccc12', 'IC50', '100 to 1000 nM'),
  ('Cn1c(=O)c(-c2cccc3c(C[C@H](NC(=O)c4c(F)cc(N(C5COC5)C5COC5)cc4F)C(=O)O)cccc23)c(C(F)(F)F)c2ccccc21', 'IC50', '> 1000 nM'),
  ('COc1ccc(CN2CCC(F)(F)CC2)c(OC)c1-c1cccc2c(C[C@H](NC(=O)C3(C(F)(F)F)CCN([C@H]4COC[C@H]4F)CC3)C(=O)O)cccc12', 'IC50', '> 1000 nM'),
  ('CO[C@H](C)c1cc(F)c(C(=O)N[C@@H](Cc2cccc3c(-c4c(C(F)(F)F)c5ccccc5n(C)c4=O)cccc23)C(=O)O)c(F)c1', 'IC50', '> 1000 nM'),
  ('COc1ccc(CN2CCC(F)(F)CC2)c(OC)c1-c1cccc2c(C[C@H](NC(=O)c3c(C)cc(NCC(F)(F)F)cc3F)C(=O)O)cccc12', 'IC50', '> 1000 nM'),
  ('Cc1cccc(F)c1C(=O)N[C@@H](Cc1cccc2c(-c3nccc4c(CN5CCCC5)cccc34)cccc12)C(=O)O', 'IC50', '> 1000 nM');

###

Experimental System: α4β1 integrin (Homo sapiens (Human), UniProt P05556+P13612)
Test Name: Integrin Adhesion Assay: Protocol 5 (VCAM-coated plate, RPMI-8866 cells with stable LOF mutation of the ITGB7 gene)
Type: cell-based
Condition Set: Protocol 5; RPMI-8866 cells with LOF mutation of ITGB7, VCAM; read-out: Mean IC50 α4β1 KO
From the text: Integrin Adhesion Assay Using Genetically Modified Cells Generating Stable Cell Lines with ITGB1 or ITGB7 Knockout (Protocol 4 and Protocol 5) […] To generate an individual clones of cells deficient in either ITGB7 or ITGB1 by limiting dilution assay, the transfected cells were resuspended at 5 cells/mL and seeded in 384 well plates. Outgrowth of clones was monitored using a microscope, and 24 clones were transferred for expansion. […]
pIC50: −log10 of the molar value.
Here, each record is paired with measured pIC50 data.
Measured Quantity: pIC50

INSERT INTO measurements (sample_smiles, measured_quantity, recorded_measurement) VALUES
  ('CN1CCc2cc(-c3cccc4c(C[C@H](NC(=O)C5(C(F)(F)F)CCN(CC(F)(F)F)CC5)C(=O)O)cccc34)ncc2C1', 'pIC50', '< 6.00'),
  ('COc1cccc(CCN2CCC[C@@H](F)C2)c1-c1cccc2c(C[C@H](NC(=O)C3(C(F)(F)F)CCN(CC(F)(F)F)CC3)C(=O)O)cccc12', 'pIC50', '6.00 to 7.00'),
  ('COc1ccc(CCN2CCC(C)(C)CC2)c(OC)c1-c1cccc2c(C[C@H](NC(=O)C3(C(F)(F)F)CCN(CC(F)(F)F)CC3)C(=O)O)cccc12', 'pIC50', '6.00 to 7.00'),
  ('COc1cc(CN2CCC(C)(C)CC2)cnc1-c1cccc2c(C[C@H](NC(=O)C3(C(F)(F)F)CCN(CC(F)(F)F)CC3)C(=O)O)cccc12', 'pIC50', '< 6.00'),
  ('COc1cc(CCN2CCCCC2)ccc1-c1cccc2c(C[C@H](NC(=O)C3(C(F)(F)F)CCN(CC(F)(F)F)CC3)C(=O)O)cccc12', 'pIC50', '6.00 to 7.00'),
  ('COc1c(-c2cccc3c(C[C@H](NC(=O)C4(C(F)(F)F)CCN(CC(F)(F)F)CC4)C(=O)O)cccc23)cc(CN2CCCCC2)cc1C(F)(F)F', 'pIC50', '< 6.00');
